These data points were gathered from paper PMC4562733.

assay: Acute toxicity; conditions: both, Kunming, mouse, in vivo, iv
property.label: LD50 at 14 days (mg/kg)
Answers are plain numbers, in mg/kg.

For CC(=O)O[C@H]1C(=O)[C@@]2(C)[C@H]([C@H](OC(=O)c3ccccc3)[C@]3(O)C[C@H](OC(=O)[C@H](O)[C@@H](NC(=O)c4ccccc4)c4ccccc4)C(C)=C1C3(C)C)[C@]1(OC(C)=O)CO[C@@H]1C[C@@H]2O [PTX, Paclitaxel, reference compound] , what is its reported LD50 at 14 days?
25.5
